Reference source: patent US20240043542A1

Below: a set of entries, each annotated with reported FOP (fold binding over the parental cell line).
Target: T1, cynomolgus monkey B7-H4 on the cell surface (cynomolgus monkey, UniProt Q7Z7D3 25-282 (human entry))
T1 construct: full-length, on transfected HEK293T cells
T1 chain: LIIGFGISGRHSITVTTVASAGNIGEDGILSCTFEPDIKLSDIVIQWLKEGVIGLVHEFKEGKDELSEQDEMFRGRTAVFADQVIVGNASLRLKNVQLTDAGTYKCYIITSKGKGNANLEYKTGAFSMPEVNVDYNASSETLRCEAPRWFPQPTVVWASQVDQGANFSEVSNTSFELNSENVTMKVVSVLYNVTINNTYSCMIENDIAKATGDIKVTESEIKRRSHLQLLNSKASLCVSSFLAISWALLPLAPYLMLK
Assay: flow cytometry, 100 nM, transfected HEK293T
Field: numeric (fold). Do not append units.

Below: 2 binders and their reported FOP (fold binding over the parental cell line).
1. B7-H4 antibody 15461 (antibody, human IgG1, kappa, V domains shown, human IgG1/kappa) VH: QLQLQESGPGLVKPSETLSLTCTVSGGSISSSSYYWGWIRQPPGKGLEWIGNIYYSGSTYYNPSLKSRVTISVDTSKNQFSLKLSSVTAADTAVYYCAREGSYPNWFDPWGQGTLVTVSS VL: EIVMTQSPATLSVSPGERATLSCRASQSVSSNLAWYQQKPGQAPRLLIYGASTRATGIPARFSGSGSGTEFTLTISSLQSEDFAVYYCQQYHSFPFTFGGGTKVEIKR	610
2. B7-H4 antibody 20502.1 (antibody, human IgG1, kappa, V domains shown, human IgG1/kappa) VH: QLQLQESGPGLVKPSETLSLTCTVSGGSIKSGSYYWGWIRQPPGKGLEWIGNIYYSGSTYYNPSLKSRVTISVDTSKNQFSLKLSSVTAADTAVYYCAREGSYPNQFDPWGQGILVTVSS VL: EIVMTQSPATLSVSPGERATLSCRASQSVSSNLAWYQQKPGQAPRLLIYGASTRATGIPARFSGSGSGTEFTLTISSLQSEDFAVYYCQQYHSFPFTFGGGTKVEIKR	683

Consider the binder B7-H4 antibody 20501 (antibody, human IgG1, kappa, V domains shown, human IgG1/kappa) VH: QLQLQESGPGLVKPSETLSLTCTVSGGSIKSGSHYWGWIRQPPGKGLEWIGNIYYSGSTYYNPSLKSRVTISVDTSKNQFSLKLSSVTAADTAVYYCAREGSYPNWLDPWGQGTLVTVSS VL: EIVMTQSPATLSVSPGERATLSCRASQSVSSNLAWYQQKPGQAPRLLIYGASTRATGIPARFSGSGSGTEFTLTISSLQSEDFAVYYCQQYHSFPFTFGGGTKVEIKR and give its measured FOP (fold binding over the parental cell line).
728

Please give the measured FOP (fold binding over the parental cell line) for this binder: B7-H4 antibody 15465 (antibody, human IgG1, kappa, V domains shown, human IgG1/kappa) VH: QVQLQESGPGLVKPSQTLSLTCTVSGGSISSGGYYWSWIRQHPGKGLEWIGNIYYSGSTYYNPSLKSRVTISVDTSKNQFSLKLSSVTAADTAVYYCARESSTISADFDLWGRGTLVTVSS VL: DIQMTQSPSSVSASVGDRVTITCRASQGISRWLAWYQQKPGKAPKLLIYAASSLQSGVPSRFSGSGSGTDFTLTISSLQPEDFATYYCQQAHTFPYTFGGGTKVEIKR
1320

GET /values?readout=FOP (fold binding over the parental cell line)&item= B7-H4 antibody 15495 (antibody, human IgG1, kappa, V domains shown, human IgG1/kappa) VH: QVQLVQSGAEVKKPGSSVKVSCKASGGTFSSYAISWVRQAPGQGLEWMGGIIPIFGTASYAQKFQGRVTITADESTSTAYMELSSLRSEDTAVYYCARQQYDGRRYFGLWGRGTLVTVSS VL: EIVMTQSPATLSVSPGERATLSCRASQSVSSNLAWYQQKPGQAPRLLIYSASTRATGIPARFSGSGSGTEFTLTISSLQSEDFAVYYCQQVNVWPPTFGGGTKVEIKR
524
